# systemName: T1, Human CD3eg linker (human)
# T1 construct: Single-chain construct; also called recombinant human CD3
# T1 chain: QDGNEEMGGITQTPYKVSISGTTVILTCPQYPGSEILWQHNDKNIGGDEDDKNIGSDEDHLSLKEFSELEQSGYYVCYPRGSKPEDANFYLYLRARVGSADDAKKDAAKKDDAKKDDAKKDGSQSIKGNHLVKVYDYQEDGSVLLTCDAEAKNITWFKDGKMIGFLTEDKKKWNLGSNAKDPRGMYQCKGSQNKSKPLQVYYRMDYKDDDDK
# experimentalDetails: SPR; fold vs parent H183/L072
measuredMetric: fold change of affinity (fold)

binder="H183/L072 VL V51T (antibody, name in Kabat numbering, V domains shown) VH: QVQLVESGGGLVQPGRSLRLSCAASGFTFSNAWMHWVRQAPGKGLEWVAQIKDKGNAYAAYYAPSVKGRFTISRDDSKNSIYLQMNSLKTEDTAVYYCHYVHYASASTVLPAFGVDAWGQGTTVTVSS VL: DIVMTQSPLSLPVTPGEPASISCQASQELVHMNRNTYLHWYQQKPGQAPRLLIYKTSNRFPGVPDRFSGSGSGTDFTLKISRVEAEDVGVYYCAQGTSVPFTFGQGTKLEIK" valueobserved=0.2
binder="H183/L072 VL N53E (antibody, name in Kabat numbering, V domains shown) VH: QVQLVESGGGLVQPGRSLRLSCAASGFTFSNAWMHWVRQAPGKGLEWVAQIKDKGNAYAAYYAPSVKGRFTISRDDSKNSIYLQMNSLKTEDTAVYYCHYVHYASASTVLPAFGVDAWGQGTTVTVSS VL: DIVMTQSPLSLPVTPGEPASISCQASQELVHMNRNTYLHWYQQKPGQAPRLLIYKVSERFPGVPDRFSGSGSGTDFTLKISRVEAEDVGVYYCAQGTSVPFTFGQGTKLEIK" valueobserved=0.5
binder="H183/L072 VL H34N (antibody, name in Kabat numbering, V domains shown) VH: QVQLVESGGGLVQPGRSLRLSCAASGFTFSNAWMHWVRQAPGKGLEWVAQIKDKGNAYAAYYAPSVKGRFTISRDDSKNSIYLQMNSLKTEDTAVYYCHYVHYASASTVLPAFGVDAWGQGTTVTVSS VL: DIVMTQSPLSLPVTPGEPASISCQASQELVHMNRNTYLNWYQQKPGQAPRLLIYKVSNRFPGVPDRFSGSGSGTDFTLKISRVEAEDVGVYYCAQGTSVPFTFGQGTKLEIK" valueobserved=0.2
